measurementTarget: T1, FGFR2 kinase domain, mono-phosphorylated on Y657 (UniProt P21802-3 465-764, Y467F (worked out from the printed order of phosphorylation) | Y587F (worked …, phosphotyrosine at 657))
T1 construct: FGFR2 (IIIb isoform) kinase domain, residues 465-764; numbers count on: FGFR2IIIb (C1 isoform, 822 residues); also called KD^pY1; source: E. coli BL21(DE3), purified (Talon, Superdex 75)
T1 sequence (P21802 464-763 Y466F/Y586F/Y588F/Y657F/Y733F): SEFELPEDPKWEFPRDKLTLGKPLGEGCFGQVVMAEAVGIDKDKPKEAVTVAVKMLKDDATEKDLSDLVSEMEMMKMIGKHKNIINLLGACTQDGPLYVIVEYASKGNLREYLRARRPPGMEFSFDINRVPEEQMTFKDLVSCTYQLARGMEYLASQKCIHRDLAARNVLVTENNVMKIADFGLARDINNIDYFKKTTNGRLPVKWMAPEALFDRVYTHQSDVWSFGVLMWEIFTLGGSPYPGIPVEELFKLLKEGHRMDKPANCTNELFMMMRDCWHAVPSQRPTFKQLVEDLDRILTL
assayRemarks: MST; synthetic JM or CT peptides in serial dilution against KD^pY1, 25 °C; 20 mM HEPES, 150 mM NaCl, 1 mM TCEP, 0.01% Tween 20, pH 7.5
protocolConditions: both partners purified
reportedEndpoint: Kd (µM)

Worked examples, 3 binders total:
{"binder": "PCLPQYPH (FGFR2 (IIIb, C1 isoform) C-terminal tail, residues 808-815; numbers count on: FGFR2IIIb (C1 isoform, 822 residues); also called CT^808-815; source: synthetic peptide, bought: Genscript) [CT peptide 808-815]", "Kd (µM)": 291}
{"binder": "HINGSVKT (FGFR2 (IIIb, C1 isoform) C-terminal tail, residues 815-822; numbers count on: FGFR2IIIb (C1 isoform, 822 residues); also called CT^815-822; source: synthetic peptide, bought: Genscript) [CT peptide 815-822]", "Kd (µM)": 426}
{"binder": "PCLPQYPHINGSVKT (FGFR2 (IIIb, C1 isoform) C-terminal tail, residues 808-822; numbers count on: FGFR2IIIb (C1 isoform, 822 residues); also called CT^808-822; source: synthetic peptide, bought: Genscript) [CT peptide 808-822]", "Kd (µM)": 257}

1 = PCLPQYPHINGS (numbers count on: FGFR2IIIb (C1 isoform, 822 residues); also called 808PCLPQYPHINGS819; source: synthetic peptide, bought: Genscript) [CT peptide 808-819]
2 = PDPMPYEPCLPQYPH (numbers count on: FGFR2IIIb (C1 isoform, 822 residues); source: synthetic peptide, bought: Genscript) [CT peptide 801-815]
Task: Rank 1 against 2 by their Kd values and give the higher one. To answer, give the label that identifies your chosen option.
Result: 1
(1: 255 µM, 2: 25.8 µM)
